# tgt: Recombinant STAT6 protein (STAT6 (W123-T658)) (Homo sapiens, UniProt P42226)
# Construct: Recombinant STAT6 protein (STAT6 (W123-T658))
# Sequence (P42226 123-658): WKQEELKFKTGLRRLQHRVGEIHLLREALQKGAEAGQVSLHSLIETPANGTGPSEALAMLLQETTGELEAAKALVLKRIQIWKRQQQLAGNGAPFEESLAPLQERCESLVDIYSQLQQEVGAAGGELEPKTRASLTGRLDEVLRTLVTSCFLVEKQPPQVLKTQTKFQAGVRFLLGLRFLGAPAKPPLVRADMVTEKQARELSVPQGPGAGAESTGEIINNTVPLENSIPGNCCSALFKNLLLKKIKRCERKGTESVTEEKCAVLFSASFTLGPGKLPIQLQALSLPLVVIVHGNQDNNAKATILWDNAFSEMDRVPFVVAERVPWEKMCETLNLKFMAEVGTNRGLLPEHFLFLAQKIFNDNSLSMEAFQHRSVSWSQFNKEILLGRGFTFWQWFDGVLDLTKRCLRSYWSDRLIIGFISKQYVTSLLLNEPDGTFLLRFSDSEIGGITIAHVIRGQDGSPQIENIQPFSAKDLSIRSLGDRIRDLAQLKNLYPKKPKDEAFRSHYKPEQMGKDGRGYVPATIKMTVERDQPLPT
# experimental_details: STAT6 Fluorescence Polarization (FP) Assay
# Format: binding
# study_conditions: STAT6 (W123-T658) 250 nM, probe 5-FAM-Ap[…]-NH2 2 nM, 45-minute incubation; read-out: STAT6 (FP assay IC50 class)
pIC50: −log10 of the molar value.
// values below are reported pIC50

Look up pIC50: Cn1nccc1N1CC[C@@H](NC(=O)[C@@H]2CC[C@@H]3CCCC[C@H](NC(=O)c4cc5cc(C(F)P(=O)(O)O)ccc5s4)C(=O)N32)C1 (some centres unmarked)
4.52 to 5.52

Look up pIC50: N#Cc1ccncc1C1CN(C(=O)[C@@H]2CC[C@@H]3CCC[C@H](NC(=O)c4cc5cc(CP(=O)(O)O)ccc5s4)C(=O)N32)C1
4.52 to 5.52

Look up pIC50: N#C[C@@H]1[C@@H](c2ccccc2)CN(C(=O)[C@@H]2CC[C@@H]3CCCC[C@H](NC(=O)c4cc5cc([C@H](F)P(=O)(O)O)ccc5s4)C(=O)N32)C12CC2 (single isomer, unassigned)
≥ 6.52

Ref: patent US20250215029A1
